- test_name: Biodistribution in sham-operated rats with and without excess cold compound
- Type: in vivo
- assay_context: male, Sprague Dawley, rat, bile and urine, iv, total radioactivity, 15 days post-op, 1 hour post-injection, +100-fold excess cold Compound 8
Numbered stars: 1 amine (or outer) side, 2 acyl side, 3 side chain; on linkers, the order of the positions; unused ones are H or OH. Bridge positions count the residues as written; N and C are the ends. Side chains are listed from the residue outwards. Peptide text beside a SMILES is read from it. * marks the point of attachment. X1 = C/C(=N\O)C(C)(C)NCCC(CCNC(C)(C)/C(C)=N/O)CCN*; Glutaryl = O=C(CCCC(=O)[*:2])[*:1]; X2 = NC(=O)COCC(=O)NCCOCCOCCOCCN*
measured_quantity: dose excreted at 1 h (%)
Only the number, expressed in %, is required.

# input compound: C/C(=N\O)C(C)(C)NCCC(CCNC(=O)CCCC(=O)NCCCC[C@@H]1NC(=O)CSC[C@@H](C(=O)NCCOCCOCCOCCNC(=O)COCC(N)=O)NC(=O)[C@H](Cc2ccccc2)NC(=O)[C@@H]2CSSC[C@H](NC1=O)C(=O)N[C@@H](CCCNC(=N)N)C(=O)NCC(=O)N[C@@H](CC(=O)O)C(=O)N2)CCNC(C)(C)/C(C)=N/O (stereo partly shown) [Compound 8] ({CH2CO}-K([Glutaryl-X1])CRGDCFC-X2; disulfide 2-6; thioether N-8) ; wanted: its dose excreted at 1 h
43.2
